Source: patent US20260193268A1

System: MCF-7 cells (with PI3Kα E545K mutation)
Test: In vitro inhibition of MCF-7 cell proliferation (CellTiter-Lumi)
Assay type: cell-based
Details: Homo sapiens, MCF7, 144 h, class symbols, read-out: Inhibitory activity against MCF-7 cells (IC50), class symbols
Listed here: items and their measured IC50.

Recorded results for 5 compounds are shown here.
- Compound: "CC(C)=CC(=O)CCCC(=O)N1CCN(Cc2ccc3c(c2)-c2nc(N4C(=O)OC[C@H]4C(F)F)cn2CCO3)CC1 [Compound 190]"
  IC50: "< 50 nM"
- Compound: "CN(C1COC1)C(C)(C)C=C(C#N)C(=O)Nc1ccc(N2CC(N3CCN(c4ccc5c(c4)-c4nc(N6C(=O)OC[C@H]6C(F)F)cn4CCO5)CC3)C2)cn1 [Compound 289]"
  IC50: "< 50 nM"
- Compound: "COC(C)(C)C=C(C#N)C(=O)Nc1ccc(N2CC(N3CCN(c4ccc5c(c4)-c4nc(N6C(=O)OC[C@H]6C(F)F)cn4CCO5)CC3)C2)cc1 [Compound 212]"
  IC50: "< 50 nM"
- Compound: "CC(C)(C=C(C#N)C(=O)Nc1ccc(N2CC(N3CCN(c4ccc5c(c4)-c4nc(N6C(=O)OC[C@H]6C(F)F)cn4CCO5)CC3)C2)nc1)NC1COC1 [Compound 239]"
  IC50: "< 50 nM"
- Compound: "Cc1nc(-c2cn3c(n2)-c2cc(N4CCN(C5CN(c6ccc(NC(=O)C(C#N)=CC(C)(C)C)c(Cl)c6)C5)CC4)ccc2OCC3)n(C(C)C)n1 [Compound 370]"
  IC50: "< 50 nM"

query: Hello, please tell me recorded IC50 for this one: COCCNC(C)(C)C=C(C#N)C(=O)Nc1ccc(N2CC(N3CCN(c4ccc5c(c4)-c4nc(N6C(=O)OC[C@H]6C(F)F)cn4CCO5)CC3)C2)nc1 [Compound 250]
result: < 50 nM

query: Hello, please tell me recorded IC50 for this one: N#CC(=CC1(N)CC1)C(=O)Nc1cnc(N2CC(N3CCN(c4ccc5c(c4)-c4nc(N6C(=O)OC[C@H]6C(F)F)cn4CCO5)CC3)C2)nc1 [Compound 271]
result: < 50 nM

query: Hello, please tell me recorded IC50 for this one: COC(C)(C)C=C(C#N)C(=O)Nc1ccc(N2CC(N3CCN(c4ccc5c(c4)-c4nc(N6C(=O)OC[C@H]6C(F)F)cn4CCO5)CC3)C2)c(F)c1 [Compound 231]
result: < 50 nM
